Record form. Attribute: inhibition at 10 µM. Fill in for each entry.
- Tgt: hPXR (Homo sapiens (Human))
- Sequence (O75469 whole entry): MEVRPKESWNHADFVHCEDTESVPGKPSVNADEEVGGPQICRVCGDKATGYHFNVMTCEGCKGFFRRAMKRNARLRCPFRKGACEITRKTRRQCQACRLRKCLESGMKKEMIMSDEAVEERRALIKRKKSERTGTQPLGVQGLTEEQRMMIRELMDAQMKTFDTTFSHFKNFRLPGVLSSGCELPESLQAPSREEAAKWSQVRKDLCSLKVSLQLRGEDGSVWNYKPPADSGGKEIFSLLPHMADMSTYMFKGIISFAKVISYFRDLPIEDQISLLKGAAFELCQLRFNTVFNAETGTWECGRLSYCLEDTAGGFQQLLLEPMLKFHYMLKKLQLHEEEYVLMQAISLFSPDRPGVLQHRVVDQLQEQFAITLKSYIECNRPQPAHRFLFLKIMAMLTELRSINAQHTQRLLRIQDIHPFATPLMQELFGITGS
- Method summary: cell-based hPXR antagonistic assay
- Measurement parameters: read-out: Antagonist (% inhibition at 10 μM)
Supply the numeric figure in %, leaving out any unit text.

query: Quote hPXR (Homo sapiens (Human)) inhibition at 10 µM for entry COc1ccc(OC)c(-n2nnc(C(=O)Nc3cc(OCCCCCCCCCl)cc(C(C)(C)C)c3)c2C)c1 .
result: 46

query: Quote hPXR (Homo sapiens (Human)) inhibition at 10 µM for entry COc1ccc(Cl)cc1-n1nnc(C(=O)Nc2cc(C(C)(C)C)cc(C(C)(C)C)c2)c1C .
result: 102

query: Quote hPXR (Homo sapiens (Human)) inhibition at 10 µM for entry COc1ccc(OC)c(-n2nnc(C(=O)Nc3cc(OCCCCI)cc(C(C)(C)C)c3)c2C)c1 .
result: 112

query: Quote hPXR (Homo sapiens (Human)) inhibition at 10 µM for entry CCC[C@H](CC)Oc1ccc(C(C)(C)C)cc1NC(=O)c1nnn(-c2cc(Cl)c(Cl)cc2OC)c1C .
result: 99

query: Quote hPXR (Homo sapiens (Human)) inhibition at 10 µM for entry CCCC(CC)Oc1ccc(C(C)(C)C)cc1NC(=O)c1nnn(-c2cc(OC)ccc2OC)c1C (centres unmarked) .
result: 108

query: Quote hPXR (Homo sapiens (Human)) inhibition at 10 µM for entry CCCC(CC)Oc1ccc(C(C)(C)C)cc1NC(=O)c1nnn(-c2ccccc2OC)c1C (centres unmarked) .
result: 84

query: Quote hPXR (Homo sapiens (Human)) inhibition at 10 µM for entry COc1ccc(C)cc1-n1nnc(C(=O)Nc2cc(N)cc(C(C)(C)C)c2)c1C .
result: 79

query: Quote hPXR (Homo sapiens (Human)) inhibition at 10 µM for entry COc1ccc(OC)c(-n2nnc(C(=O)Nc3cc(OCCCCCCCC=O)cc(C(C)(C)C)c3)c2C)c1 .
result: 189

query: Quote hPXR (Homo sapiens (Human)) inhibition at 10 µM for entry COc1ccc(OC)c(-n2nnc(N(S(=O)(=O)c3ccc(C(C)(C)C)cc3)S(=O)(=O)c3ccc(C(C)(C)C)cc3)c2C)c1 .
result: 49

query: Quote hPXR (Homo sapiens (Human)) inhibition at 10 µM for entry COc1ccc(Cl)cc1-n1nnc(C(=O)Nc2cc(O)cc(C(C)(C)C)c2)c1C .
result: 104

query: Quote hPXR (Homo sapiens (Human)) inhibition at 10 µM for entry COc1ccc(OC)c(-n2nnc(NS(=O)(=O)c3ccc(C(C)(C)C)cc3)c2C)c1 .
result: 25

query: Quote hPXR (Homo sapiens (Human)) inhibition at 10 µM for entry CCCC(C)Oc1ccc(C(C)(C)C)cc1NC(=O)c1nnn(-c2ccccc2OC)c1C (centres unmarked) .
result: 78

query: Quote hPXR (Homo sapiens (Human)) inhibition at 10 µM for entry CCCCOc1cc(NC(=O)c2nnn(-c3cc(C)ccc3OC)c2C)cc(C(C)(C)C)c1 .
result: 105

query: Quote hPXR (Homo sapiens (Human)) inhibition at 10 µM for entry COc1ccc(OC)c(-n2nnc(C(=O)Nc3cc(NCC(=O)OC(C)(C)C)cc(C(C)(C)C)c3)c2C)c1 .
result: 104

query: Quote hPXR (Homo sapiens (Human)) inhibition at 10 µM for entry CCCCNc1cc(NC(=O)c2nnn(-c3cc(Cl)ccc3OC)c2C)cc(C(C)(C)C)c1 .
result: 104

query: Quote hPXR (Homo sapiens (Human)) inhibition at 10 µM for entry CCC[C@H](CC)Oc1ccc(C(C)(C)C)cc1NC(=O)c1nnn(-c2cc(OC)ccc2OC)c1C .
result: 105

query: Quote hPXR (Homo sapiens (Human)) inhibition at 10 µM for entry COc1ccc(OC)c(-n2nnc(C(=O)Nc3cc(C(C)(C)C)ccc3OCC(C)C)c2C)c1 .
result: 96
